Task for the reader: assign each of the following compounds its reported IC50.
- SYSTEM UNDER TEST: EGFR Exon19Del/T790M (Homo sapiens, UniProt P00533, DEL746-750/T790M)
- Construct: purchased Carna Bio
- Sequence (P00533 with tags, fused parts or gaps DEL746-750/T790M limits assumed): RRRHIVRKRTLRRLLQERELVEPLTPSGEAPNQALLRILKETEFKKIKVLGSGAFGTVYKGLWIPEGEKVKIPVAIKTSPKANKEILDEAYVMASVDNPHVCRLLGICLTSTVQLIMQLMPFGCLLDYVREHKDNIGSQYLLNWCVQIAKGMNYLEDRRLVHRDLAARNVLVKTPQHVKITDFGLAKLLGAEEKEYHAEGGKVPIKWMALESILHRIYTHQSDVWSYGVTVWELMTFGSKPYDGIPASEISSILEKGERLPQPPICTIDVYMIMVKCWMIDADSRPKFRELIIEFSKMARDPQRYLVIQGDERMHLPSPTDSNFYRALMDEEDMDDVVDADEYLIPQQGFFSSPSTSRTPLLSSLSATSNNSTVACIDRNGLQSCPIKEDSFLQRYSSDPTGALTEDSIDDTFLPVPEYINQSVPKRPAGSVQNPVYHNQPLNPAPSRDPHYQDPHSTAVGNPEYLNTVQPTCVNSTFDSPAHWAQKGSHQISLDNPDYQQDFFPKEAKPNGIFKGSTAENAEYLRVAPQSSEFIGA
- ASSAY PROCEDURE: Inhibition of EGFR Exon19Del/T790M biochemical enzymatic activity (HTRF)
- MEASUREMENT PARAMETERS: EGFR Del19-T790M, 1 mM ATP, 1 h, room temperature, read-out: IC50 (nM) @Del19-T790M

Problem: Which IC50 is reported for this compound? Cn1ncc2c1OCCN1CC3CCC(CC3)(C1)n1c(nc3cc(F)ccc31)NC(=O)c1cc-2c(=O)n(C)c1 [Example A116]
Solution: 88 nM

Problem: Which IC50 is reported for this compound? CN1CCN(c2ccc3nc4n(c3c2)C23CCC(CN(CCOc5c(cnn5C)-c5cc(cn(C)c5=O)C(=O)N4)C2)C3)CC1 (single isomer, unassigned) [Example A63B]
Solution: 0.94 nM

Problem: Which IC50 is reported for this compound? CN(C)CCN(C)c1ccc2nc3n(c2c1)C12CCC(CC1)CN(CCOc1c(cnn1C)-c1cc(cn(C)c1=O)C(=O)N3)C2 [Example A124]
Solution: 9.8 nM

Problem: Which IC50 is reported for this compound? C[C@@H]1CCCOc2c(cnn2C)-c2cc(cn(C)c2=O)C(=O)Nc2nc3ccc(N4CC5(CN(C)CCO5)C4)cc3n2C1 [Example A47]
Solution: 4.2 nM

Problem: Which IC50 is reported for this compound? CN1CCN(C2CN(c3ccc4nc5n(c4c3)C34CCC(CN(CCOc6c(cnn6C)-c6cc(cn(C)c6=O)C(=O)N5)C3)C4)C2)CC1 (single isomer, unassigned) [Example A70B]
Solution: 1.9 nM

Problem: Which IC50 is reported for this compound? Cn1ncc2c1OCCN1CCCCC(C1)n1c(nc3ccccc31)NC(=O)c1cc-2c(=O)n(C)c1 (centres unmarked) [Example A8]
Solution: 290 nM

Problem: Which IC50 is reported for this compound? CN1CCC12CCN(c1ccc3nc4n(c3c1)C13CCC(CC1)CN(CCOc1c(cnn1C)-c1cc(cn(C)c1=O)C(=O)N4)C3)CC2 [Example A122]
Solution: 7.6 nM

Problem: Which IC50 is reported for this compound? CN1CCC12CCN(c1ccc3nc4n(c3c1)C13CCC(CN(CCOc5c(cnn5C)-c5cc(cn(C)c5=O)C(=O)N4)C1)C3)CC2 (single isomer, unassigned) [Example A67A]
Solution: 4070 nM

Problem: Which IC50 is reported for this compound? CN1CCCC12CN(c1ccc3nc4n(c3c1)C13CCC(CN(CCOc5c(cnn5C)-c5cc(cn(C)c5=O)C(=O)N4)C1)C3)C2 (single isomer, unassigned) [Example A76B]
Solution: 4.9 nM

Problem: Which IC50 is reported for this compound? Cc1cc2cc(n1)-c1cnn(C)c1OCCN(CC(F)F)CCn1c(nc3ccccc31)NC2=O [Example B5]
Solution: 5.1 nM

Problem: Which IC50 is reported for this compound? CN(C)C1CCN(c2ccc3nc4n(c3c2)C23CCC(CN(CCOc5c(cnn5C)-c5cc(cn(C)c5=O)C(=O)N4)C2)C3)CC1 (single isomer, unassigned) [Example A64A]
Solution: > 5000 nM

Problem: Which IC50 is reported for this compound? CCC1CCCOc2c(cnn2C)-c2cc(cn(C)c2=O)C(=O)Nc2nc3ccc(N4CCN(C)CC4)cc3n2C1 (single isomer, unassigned) [Example A16A]
Solution: 127 nM

Problem: Which IC50 is reported for this compound? CN1CCC2(CN(c3ccc4nc5n(c4c3)C34CCC(CN(CCOc6c(cnn6C)-c6cc(cn(C)c6=O)C(=O)N5)C3)C4)C2)C(F)(F)C1 (single isomer, unassigned) [Example A91B]
Solution: 9.7 nM

Problem: Which IC50 is reported for this compound? C[C@@H]1CCCOc2c(cnn2C)-c2cc(cn(C)c2=O)C(=O)Nc2nc3ccc(N4CCN(C5CC5)CC4)cc3n2C1 [Example A48]
Solution: 2.8 nM

Problem: Which IC50 is reported for this compound? CN1CCC2(CCN(c3ccc4nc5n(c4c3)C34CCC(CN(CCOc6c(cnn6C)-c6cc(cn(C)c6=O)C(=O)N5)C3)C4)C2)C1 (single isomer, unassigned) [Example A81A]
Solution: > 5000 nM

Problem: Which IC50 is reported for this compound? CN(C)C1CN(c2ccc3nc4n(c3c2)C23CCC(CN(CCOc5c(cnn5C)-c5cc(cn(C)c5=O)C(=O)N4)C2)C3)CC1F (single isomer, unassigned) [Example A84B]
Solution: > 5000 nM

Problem: Which IC50 is reported for this compound? CN(C)CCCN(C)c1ccc2nc3n(c2c1)C12CCC(CN(CCOc4c(cnn4C)-c4cc(cn(C)c4=O)C(=O)N3)C1)C2 (single isomer, unassigned) [Example A89B]
Solution: 3.8 nM

Problem: Which IC50 is reported for this compound? Cn1ncc2c1OCCN1CC3CCC(C3)(C1)n1c(nc3ccc(N4CCC(N5CC(F)C5)CC4)cc31)NC(=O)c1cc-2c(=O)n(C)c1 (single isomer, unassigned) [Example A87B]
Solution: 9.5 nM

Problem: Which IC50 is reported for this compound? CN(C)CC1(F)CN(c2ccc3nc4n(c3c2)C23CCC(CN(CCOc5c(cnn5C)-c5cc(cn(C)c5=O)C(=O)N4)C2)C3)C1 (single isomer, unassigned) [Example A72B]
Solution: 2.4 nM

Problem: Which IC50 is reported for this compound? Cn1ncc2c1OCCN1CCCC(C)(C1)n1c(nc3ccc(N4CCOCC4)cc31)NC(=O)c1cc-2c(=O)n(C)c1 (centres unmarked) [Example A10]
Solution: 164 nM

Problem: Which IC50 is reported for this compound? Cn1ncc2c1OCCN1CC3CCC(C3)(C1)n1c(nc3ccc(N4CCC(N5CCOCC5)C4)cc31)NC(=O)c1cc-2c(=O)n(C)c1 (single isomer, unassigned) [Example A104B]
Solution: 8.5 nM

Problem: Which IC50 is reported for this compound? Cn1ncc2c1OCCN1CC3CCC(C3)(C1)n1c(nc3cc(Br)ccc31)NC(=O)c1cc-2c(=O)n(C)c1 (centres unmarked) [Example A59]
Solution: 11 nM

Problem: Which IC50 is reported for this compound? Cn1ncc2c1OCCN1CC3(CCCC1C3)n1c(nc3ccc(N4CCOCC4)cc31)NC(=O)c1cc-2c(=O)n(C)c1 (centres unmarked) [Example A9]
Solution: 198 nM

The measurements presented in this section are drawn from patent US20260365670A1.
